Data origin, for the record: paper PMC12667410

Study Target: LgBiT Protein (LgBiT subunit of the NanoBiT luciferase; large, truncated fragment of NanoLuc) (Oplophorus gracilirostris)
Test Details: split reporter
Reported Metric: fold decrease in luminescent signal against unmodified p86 (fold)

Use these answered entries as a reference point.
* p86-Succinyl9: H2N-VSGWRLFK(KSuc)IS-OH (peptide) | 1.7
* p86-Succinyl8,9: H2N-VSGWRLF(KSuc)(KSuc)IS-OH (peptide) | 7.5
* p86-Acetyl9: H2N-VSGWRLFK(KAc)IS-OH (peptide) | 1.1
* p86-Succinyl8: H2N-VSGWRLF(KSuc)KIS-OH (peptide) | 1.7

(P) p86-Acetyl8: H2N-VSGWRLF(KAc)KIS-OH (peptide)
(Q) p86-Acetyl8,9: H2N-VSGWRLF(KAc)(KAc)IS-OH (peptide)
Recorded fold decrease in luminescent signal against unmodified p86 values differ for P and Q ; which one is higher? Pick one; state its label. Q
